The measurements presented in this section are drawn from patent US9181251B2.

Tested on: P. falciparum chloroquine-resistant Dd2 strain
Assay: Antiplasmodial activity, SYBR Green I fluorescence-based assay
Type: cell-based
Conditions: Table 2; chloroquine-resistant Dd2 strain, asynchronous cultures, 72 hrs; read-out: P. falciparum IC50
quantity_name: IC50 (µM)
Express the result in µM but write the number alone.

Query: Short answer please: IC50, P. falciparum chloroquine-resistant Dd2 strain, entry CN1CC(c2c[nH]c3c(Br)c(Br)cc(O)c23)NCC1c1c[nH]c2cc(Br)ccc12 (stereo not shown)
Reply: 6.4

Query: // same read-out, input: O=C1N[C@@H](c2c[nH]c3cc(Br)ccc23)CN=C1c1c[nH]c2cc(Br)ccc12
Reply: 3.2

Query: Here is the next compound: NC(N)=NCCSc1nc(-c2c[nH]c3cc(Br)ccc23)cnc1-c1c[nH]c2cc(Br)ccc12
Reply: 6.4

----------
Kindly state pIC50 for each of the entries shown.
Assay: Cytotoxicity against NIH 3T3 fibroblasts (MTS assay)
Format: cell-based
Conditions: mouse, NIH 3T3 fibroblast cells; Table 1; NIH 3T3 fibroblasts cells
Worth noting: pIC50 values are minus log10 of concentrations stated in mol/L.

Query: Any idea what its pIC50 is? The compound is CCC(=O)NCCc1c2c3c(ccnc3c3ncsc13)-c1ccccc1N2 [Compound 5, dercitamide]
Reply: 4.83

Query: Consider next the compound C/C1=C/C(=O)C/C(C)=C/CC(C)(C)/C=C/C(=O)[C@@H](C)CCC1 in the same way.
Reply: 4.66

Query: Thanks! And C/C1=C\CC(C)(C)/C=C/C(=O)[C@@H](C)CCC[C@H](C)CC(=O)C1 ?
Reply: 4.70
